Target: peroxiredoxin-2 (Prdx2) (Homo sapiens, UniProt P32119)
Construct: His-tagged recombinant Prdx2 (rhPrdx2)
Sequence (P32119 2-198): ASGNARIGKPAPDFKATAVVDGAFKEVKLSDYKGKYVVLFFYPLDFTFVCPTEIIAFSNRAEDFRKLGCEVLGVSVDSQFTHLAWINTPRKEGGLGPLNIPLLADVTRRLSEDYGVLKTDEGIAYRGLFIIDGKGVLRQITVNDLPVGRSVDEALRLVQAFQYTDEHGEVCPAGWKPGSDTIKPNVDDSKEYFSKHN
Experiment: ITC (also SPR KD […]; peroxidase inhibition IC50 […])
observation.type: Kd (nM)
Lab book: enter the figure in nM, no units written.

Value wanted: Kd (peroxiredoxin-2 (Prdx2) (Homo sapiens, UniProt P32119)) of entry CC1=C(O)C(=O)C=C2C1=CC=C1[C@@]2(C)CC[C@@]2(C)[C@@H]3C[C@](C)(C(=O)O)CC[C@]3(C)CC[C@]12C
650
